# Method: qHTS for Inhibitors of the Functional Ribonucleoprotein Complex (vRNP) of Lassa (LASV) Arenavirus: Viability assay - alamar blue signal for LASV Primary Screen (AID 1347083); note: nearly all actives have a fitted effect of over 80% in size
# Stated conditions: cell viability, alamar blue fluorescence (LASV minigenome counter-screen); series mostly up to 57.5 µM
Records with an inconclusive call do not appear. The source made the active and inactive calls. Calls come from the whole dose curve; tested in HEK293 reporter line.
Classes used: Yes for active, No for inactive

>  <Molecule>
C[N+]1(C)CCC(OC(=O)C(c2ccccc2)c2ccccc2)CC1

>  <Discrete label>
No

$$$$
>  <Molecule>
CP(=O)(O)C1=CCNCC1

>  <Discrete label>
No

$$$$
>  <Molecule>
C[N+](C)(C)CC#CCN1CCCC1=O

>  <Discrete label>
No

$$$$
>  <Molecule>
C[C@H](N)Cc1cccc(C(F)(F)F)c1

>  <Discrete label>
No

$$$$
>  <Molecule>
NC(=O)CI

>  <Discrete label>
No

$$$$
>  <Molecule>
NNC(=O)c1ccc(O)cc1

>  <Discrete label>
No

$$$$
>  <Molecule>
CN1C2CCC1CC(OC(c1ccccc1)c1ccccc1N)C2 (centres undefined)

>  <Discrete label>
No

$$$$
>  <Molecule>
CN1CC[C@@]2(C)c3cc(O)ccc3N(C)C12 (some centres undefined)

>  <Discrete label>
No

$$$$
>  <Molecule>
CN1CCC(c2c[nH]c3ccc(O)cc23)CC1

>  <Discrete label>
No

$$$$
>  <Molecule>
CC(=O)NBr

>  <Discrete label>
No

$$$$
>  <Molecule>
COC(=O)N1CCN(C(=O)Cc2ccc(Cl)c(Cl)c2)C(CN2CCCC2)C1 (centres undefined)

>  <Discrete label>
No

$$$$
>  <Molecule>
OC1CCCCC1N1CCC(c2ccccc2)CC1 (centres undefined)

>  <Discrete label>
No

$$$$
>  <Molecule>
C[N+]1(C)CCc2cc3c(cc2[C@H]1[C@@H]1OC(=O)c2c1ccc1c2OCO1)OCO3

>  <Discrete label>
No

$$$$
>  <Molecule>
c1ccc2c(c1)[I+]c1ccccc1-2

>  <Discrete label>
Yes

$$$$

---

# Test system: CP252
# Method: qHTS profiling for inhibitors of Plasmodium falciparum proliferation (AID 504749); note: nearly all actives have a fitted effect of over 60% in size
# Stated conditions: P. falciparum in erythrocytes, SYBR Green DNA, 72 h; series mostly up to 28.7 µM
Results filed as inconclusive are left out. The source made the active and inactive calls. Calls follow the shape of the dose curve; as a rule, active = well fitted inhibition curve with a large enough effect; inconclusive = small, poorly fitted or top-dose-only effect; inactive = flat fitted curve, though single readings scatter.
Classes used: t = active, f = inactive

>  <Compound>
C=CCN(C1=NCCN1)c1c(Cl)cccc1Cl

>  <Discrete label>
f

$$$$
>  <Compound>
O=P(O)(O)C(Cl)(Cl)P(=O)(O)O

>  <Discrete label>
f

$$$$
>  <Compound>
O=[N+]([O-])c1ccc(F)c([N+](=O)[O-])c1

>  <Discrete label>
f

$$$$
>  <Compound>
C/C(=C\c1csc(C)n1)[C@@H]1C[C@@H]2O[C@]2(C)CCC[C@H](C)[C@H](O)[C@@H](C)C(=O)C(C)(C)[C@@H](O)CC(=O)O1

>  <Discrete label>
t

$$$$
>  <Compound>
N#CN

>  <Discrete label>
f

$$$$
>  <Compound>
COC([CH2][Hg])CNC(=O)c1ccccc1OCC(=O)O (stereo not drawn)

>  <Discrete label>
f

$$$$
>  <Compound>
[O]=[Cr](=[O])([OH])[O][Cr](=[O])(=[O])[OH]

>  <Discrete label>
f

$$$$
>  <Compound>
O[C@H]1[C@H]2[C@H](O)CCCN2C[C@H]1O

>  <Discrete label>
f

$$$$

---

# Method: Cell Viability - LYMP1-002 - Assay at 24 hr (AID 993)
# Stated conditions: LYMP1-002 lymphoblastoid cells viability; series mostly up to 92.2 µM
The source made the active and inactive calls. The call rests on the fitted dose curve; in most records, active means well fitted cell-killing curve with a large enough effect; inconclusive means small, poorly fitted or top-dose-only effect; inactive means flat fitted curve, though single readings scatter.
Classes used: active, inactive

>  <Compound>
CC(C)(C)c1cc(O)ccc1O

>  <Discrete label>
inactive

$$$$
>  <Compound>
NNC(N)=O

>  <Discrete label>
inactive

$$$$
>  <Compound>
[O]=[Cr](=[O])([OH])[O][Cr](=[O])(=[O])[OH]

>  <Discrete label>
inactive

$$$$
>  <Compound>
ClC(Cl)(Cl)Cl

>  <Discrete label>
inactive

$$$$
>  <Compound>
CC(C)Nc1ccc(Nc2ccccc2)cc1

>  <Discrete label>
active

$$$$
>  <Compound>
O=C(O)C(Cl)(Cl)Cl

>  <Discrete label>
inactive

$$$$
>  <Compound>
O=C1CCO1

>  <Discrete label>
inactive

$$$$
>  <Compound>
[O]=[Cd]

>  <Discrete label>
inactive

$$$$
>  <Compound>
CC(C)CCON=O

>  <Discrete label>
inactive

$$$$
>  <Compound>
ClCC1CO1 (stereo unspecified)

>  <Discrete label>
inactive

$$$$
>  <Compound>
ClC=C(Cl)Cl

>  <Discrete label>
inactive

$$$$
>  <Compound>
O=C1C=CC(=O)C=C1

>  <Discrete label>
inactive

$$$$
>  <Compound>
CCCCCl

>  <Discrete label>
inactive

$$$$
>  <Compound>
O=Cc1ccco1

>  <Discrete label>
inactive

$$$$
>  <Compound>
COc1ccc2c(c1OC)C(=O)OC2C1c2cc3c(cc2CCN1C)OCO3 (stereo unspecified)

>  <Discrete label>
inactive

$$$$
>  <Compound>
CCOC(=O)c1ccccc1C(=O)OCC

>  <Discrete label>
inactive

$$$$

---

# Tested on: GB4
# Method: qHTS profiling for inhibitors of Plasmodium falciparum proliferation (AID 504749); note: nearly all actives have a fitted effect of over 60% in size
# Stated conditions: P. falciparum in erythrocytes, SYBR Green DNA, 72 h; series mostly up to 28.7 µM
Records with an inconclusive call do not appear. Active and inactive are the calls of the source. Calls follow the shape of the dose curve; as a rule, active = well fitted inhibition curve with a large enough effect; inconclusive = small, poorly fitted or top-dose-only effect; inactive = flat fitted curve, though single readings scatter.
Classes used: active, inactive

>  <Molecule>
COC1=CC=C2[C@H]3Cc4ccc(OC)c5c4[C@@]2(CCN3C)[C@H]1O5

>  <Discrete label>
inactive

$$$$
>  <Molecule>
COC([CH2][Hg])CNC(=O)c1ccccc1OCC(=O)O (centres undefined)

>  <Discrete label>
inactive

$$$$
>  <Molecule>
CCC1(CC)C(=O)NC(=O)N(C)C1=O

>  <Discrete label>
inactive

$$$$
>  <Molecule>
O=C(CS(=O)C(c1ccccc1)c1ccccc1)NO (centres undefined)

>  <Discrete label>
inactive

$$$$
>  <Molecule>
ClC=C(Cl)Cl

>  <Discrete label>
inactive

$$$$
>  <Molecule>
N#CN

>  <Discrete label>
inactive

$$$$
>  <Molecule>
C=CCN1CCC23c4c5ccc(O)c4O[C@H]2C(=O)CC[C@@]3(O)C1C5 (some centres undefined)

>  <Discrete label>
inactive

$$$$
>  <Molecule>
[Cl-].[Cl-].[Hg+2]

>  <Discrete label>
active

$$$$
>  <Molecule>
N#CC(C#N)=Cc1cc(O)c(O)c(O)c1

>  <Discrete label>
active

$$$$
>  <Molecule>
O=c1[nH]cc(N(CCCl)CCCl)c(=O)[nH]1

>  <Discrete label>
inactive

$$$$
>  <Molecule>
O=C(OCCN1CCCCC1)C(O)(c1ccccc1)c1ccccc1

>  <Discrete label>
inactive

$$$$
>  <Molecule>
FC(F)OC(F)(F)C(F)Cl (centres undefined)

>  <Discrete label>
inactive

$$$$
>  <Molecule>
S=C(S)N1CCNCC1

>  <Discrete label>
inactive

$$$$
>  <Molecule>
CNC(=O)Oc1ccccc1C(=O)Nc1ccccc1

>  <Discrete label>
active

$$$$

---

# Test system: DIV17
# Method: qHTS profiling for inhibitors of Plasmodium falciparum proliferation (AID 504749); note: nearly all actives have a fitted effect of over 60% in size
# Stated conditions: P. falciparum in erythrocytes, SYBR Green DNA, 72 h; series mostly up to 28.7 µM
Records with an inconclusive call do not appear. Calls of active or inactive are those of the source. The call rests on the fitted dose curve; in most records, active means well fitted inhibition curve with a large enough effect; inconclusive means small, poorly fitted or top-dose-only effect; inactive means flat fitted curve, though single readings scatter.
Classes used: active, inactive

>  <Compound>
S=C(S)N1CCNCC1

>  <Target system>
DIV17

>  <Discrete label>
inactive

$$$$
>  <Compound>
O=c1[nH]c(=O)n(Cl)c(=O)n1Cl

>  <Target system>
DIV17

>  <Discrete label>
inactive

$$$$
>  <Compound>
O=CC=O

>  <Target system>
DIV17

>  <Discrete label>
inactive

$$$$
>  <Compound>
O=[N+]([O-])c1ccc(F)c([N+](=O)[O-])c1

>  <Target system>
DIV17

>  <Discrete label>
inactive

$$$$
>  <Compound>
S=C=S

>  <Target system>
DIV17

>  <Discrete label>
inactive

$$$$
>  <Compound>
C[C@]12CCC(=O)C[C@@H]1CC[C@@H]1[C@@H]2CC[C@]2(C)[C@@H](O)CC[C@@H]12

>  <Target system>
DIV17

>  <Discrete label>
inactive

$$$$
>  <Compound>
O=C(NCNC(=O)NC1C(=O)NC(=O)N1CO)NC1C(=O)NC(=O)N1CO (stereo not drawn)

>  <Target system>
DIV17

>  <Discrete label>
inactive

$$$$
>  <Compound>
CC(C)CCON=O

>  <Target system>
DIV17

>  <Discrete label>
inactive

$$$$
>  <Compound>
CC[N+](C)(CC)CCOC(=O)C(O)(c1ccccc1)c1ccccc1

>  <Target system>
DIV17

>  <Discrete label>
inactive

$$$$
>  <Compound>
FC(F)OC(F)(F)C(F)Cl (stereo not drawn)

>  <Target system>
DIV17

>  <Discrete label>
inactive

$$$$
>  <Compound>
c1ccc2sc(SNC3CCCCC3)nc2c1

>  <Target system>
DIV17

>  <Discrete label>
inactive

$$$$
>  <Compound>
CC(C)Nc1ccc(Nc2ccccc2)cc1

>  <Target system>
DIV17

>  <Discrete label>
active

$$$$
>  <Compound>
Clc1ccc(Cl)cc1

>  <Target system>
DIV17

>  <Discrete label>
inactive

$$$$
